These data points were gathered from patent US20110300156A1.

TARGET_OR_TEST_SYSTEM: T1, human tissue factor (TF), membrane-bound on cells (human, UniProt P13726 33-295)
T1 construct: whole, on cells; also called cellular TF
TEST_SUMMARY: FACS, Bx-PC3 cells, 30 µg/mL

BINDER	Max MFI
anti-TF HuMab 087-Lg6 (antibody, V domains shown, Human monoclonal antibody from HuMab mice) VH: EVQLVQSGAEVKKPGESLKISCKGSGYSFTSCWIGWVRQMPGKGLEWMGIIYPGDSDTRYSPSFQGQVTISADKSISTAYLQWSSLKASDTAMYYCARHKLGMDHDAFDIWGQGTMVTVSS VL: DIQMTQSPSSLSASVGDRVTITCRASQGISSWLAWYQQKPEKAPKSLIYAASSLQSGVPSRFSGSGSGTDFTLTISSLQPEDFATYYCQQYNSYPPTFGQGTTVEVK	1030
anti-TF HuMab 003 (antibody, V domains shown, Human monoclonal antibody from HuMab mice; also called HuMab-TF-003) VH: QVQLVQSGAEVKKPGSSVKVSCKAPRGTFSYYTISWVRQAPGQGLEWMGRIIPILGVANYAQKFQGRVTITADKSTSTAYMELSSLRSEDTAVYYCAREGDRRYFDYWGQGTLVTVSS VL: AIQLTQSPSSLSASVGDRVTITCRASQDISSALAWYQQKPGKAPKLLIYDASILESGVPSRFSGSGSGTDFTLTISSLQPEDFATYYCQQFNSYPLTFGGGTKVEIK	1110
anti-TF HuMab 101 (antibody, V domains shown, Human monoclonal antibody from HuMab mice) VH: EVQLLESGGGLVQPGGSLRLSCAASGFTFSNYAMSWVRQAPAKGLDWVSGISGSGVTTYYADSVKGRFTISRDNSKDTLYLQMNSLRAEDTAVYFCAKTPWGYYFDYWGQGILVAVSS VL: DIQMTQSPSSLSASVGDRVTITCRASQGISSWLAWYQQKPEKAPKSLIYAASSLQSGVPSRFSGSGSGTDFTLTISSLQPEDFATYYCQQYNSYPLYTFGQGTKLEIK	1220
anti-TF HuMab 092-A09 (antibody, V domains shown, Human monoclonal antibody from HuMab mice) VH: EVQLLESGGGLVQPGGSLRLSCAASGFTFNNYAMSWVRQAPGKGLEWVSSISGSGGRTYYADSVKGRFTISRDNSKNTLFLQMNSLRAEDTAVYYCAKTPWGYYFDYWGQGTLVTVSS VL: DIQMTQSPSSLSASVGDRVTITCRASQGISSRLAWYQQKPEKAPKSLIYAASSLQSGVPSRFSGSGSGTDFTLTISSLQPEDFATYYCQQYNSYPYTFGQGTKLEIK	1260
anti-TF HuMab 013 (antibody, V domains shown, Human monoclonal antibody from HuMab mice; also called HuMab-TF-13) VH: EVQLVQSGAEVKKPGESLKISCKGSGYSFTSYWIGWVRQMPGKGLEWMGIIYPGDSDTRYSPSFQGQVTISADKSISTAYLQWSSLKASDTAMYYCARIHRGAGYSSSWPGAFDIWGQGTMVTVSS VL: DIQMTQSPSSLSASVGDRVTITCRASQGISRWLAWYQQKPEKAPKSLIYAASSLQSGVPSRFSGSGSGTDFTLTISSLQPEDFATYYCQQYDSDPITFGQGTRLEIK	1300
anti-TF HuMab 011 (antibody, V domains shown, Human monoclonal antibody from HuMab mice; also called HuMab-TF-11) VH: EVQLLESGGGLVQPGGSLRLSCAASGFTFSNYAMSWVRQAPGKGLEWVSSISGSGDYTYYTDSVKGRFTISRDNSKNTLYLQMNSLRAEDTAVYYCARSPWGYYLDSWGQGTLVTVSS VL: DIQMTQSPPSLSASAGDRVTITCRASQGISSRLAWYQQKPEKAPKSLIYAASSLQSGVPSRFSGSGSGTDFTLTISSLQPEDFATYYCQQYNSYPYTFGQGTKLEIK	1280
anti-TF HuMab 109 (antibody, V domains shown, Human monoclonal antibody from HuMab mice) VH: QVQLVESGGGVVQPGRSLRLSCPASGFTFSIYAMHWVRQAPGKGLEWVAVVSNDGYNKYYADSVKGRFTISRDNSKDTLYLQMNSLRAEDTAVYYCARDGQLGRGYFDYWGQGTLVTVSS VL: EIVLTQSPATLSLSPGERAILSCRASQSVSSYLAWYQQKPGQAPRLLIYDASNRATGIPARFSGSGSGTDFTLTISSLEPEDFAVYYCQQRSNWPLTFGGGTKVEIK	1320
anti-TF HuMab 111 (antibody, V domains shown, Human monoclonal antibody from HuMab mice) VH: QVQLVESGGGVVQPGRSLRLSCAGSGFTFNRYAMYWVRQAPGKGLDWVAVISNDGINKYYADSVKGRFTISRDNSKNTLYLQMNSLRAEDTAVYYCARDHTMVRGAFDYWGQGTLVTVSS VL: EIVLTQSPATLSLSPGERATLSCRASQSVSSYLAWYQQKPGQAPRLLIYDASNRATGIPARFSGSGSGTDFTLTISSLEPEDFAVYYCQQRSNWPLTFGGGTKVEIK	1130
